The origin of these recorded values is patent US20230134571A1.

- MEASURED ON: HIV Env, isolate Ce0393_C3 (HIV)
- MEASUREMENT PROTOCOL: cell-based or functional assay
QUANTITY MEASURED: IC80 (µg/ml) with constrains (µg/mL)
Hi! Could you send only the number? It should be in µg/mL, unit omitted.

Requested read-out: IC80 (µg/ml) with constrains. Entry: ePGDM13 (antibody, V domains shown) VH: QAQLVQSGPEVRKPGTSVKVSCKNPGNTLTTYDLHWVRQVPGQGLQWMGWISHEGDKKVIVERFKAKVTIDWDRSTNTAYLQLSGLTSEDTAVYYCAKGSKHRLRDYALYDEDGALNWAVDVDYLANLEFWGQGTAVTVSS VL: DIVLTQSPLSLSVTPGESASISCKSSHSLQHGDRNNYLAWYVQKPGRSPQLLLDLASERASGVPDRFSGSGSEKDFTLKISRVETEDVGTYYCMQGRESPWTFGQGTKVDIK
0.022
